test: Particle size analysis by laser diffraction (Malvern Mastersizer 2000); assay type: physicochemical; conditions: 10% of the total volume of particles is less than the indicated size; final method conditions, 0.1% (w/v) Span 85 in hexane
Provide the recorded d10 for the entries that follow.
Numbers only, in μm.

Some compounds with recorded d10:
- compound: "CCN(CC)CCOc1ccc(/C(=C(/Cl)c2ccccc2)c2ccccc2)cc1.O=C(O)CC(O)(CC(=O)O)C(=O)O [compound 16204]"
  unit-abbreviation: "μm"
  d10: 8.058
- compound: "CCN(CC)CCOc1ccc(/C(=C(/Cl)c2ccccc2)c2ccccc2)cc1.O=C(O)CC(O)(CC(=O)O)C(=O)O [compound 24712]"
  unit-abbreviation: "μm"
  d10: 4.038
- compound: "CCN(CC)CCOc1ccc(/C(=C(/Cl)c2ccccc2)c2ccccc2)cc1.O=C(O)CC(O)(CC(=O)O)C(=O)O [compound 32305]"
  unit-abbreviation: "μm"
  d10: 3.373

// each listed compound needs a value for d10
1. CCN(CC)CCOc1ccc(/C(=C(/Cl)c2ccccc2)c2ccccc2)cc1.O=C(O)CC(O)(CC(=O)O)C(=O)O [compound 31249]
2. CCN(CC)CCOc1ccc(/C(=C(/Cl)c2ccccc2)c2ccccc2)cc1.O=C(O)CC(O)(CC(=O)O)C(=O)O [compound 24867]

Result:
1. 4.850
2. 4.794

====

test: Particle size analysis by laser diffraction (Malvern Mastersizer 2000); format: physicochemical; details: 90% of the total volume of particles is less than the indicated size; final method conditions, 0.1% (w/v) Span 85 in hexane
outcome-measure: d90
Output should be the measured figure followed by the unit it is expressed in.

- molecule: "CCN(CC)CCOc1ccc(/C(=C(/Cl)c2ccccc2)c2ccccc2)cc1.O=C(O)CC(O)(CC(=O)O)C(=O)O [compound 24867]"
  d90: "70.289 μm"

// each listed molecule needs a value for d90
1. CCN(CC)CCOc1ccc(/C(=C(/Cl)c2ccccc2)c2ccccc2)cc1.O=C(O)CC(O)(CC(=O)O)C(=O)O [compound 32305]
2. CCN(CC)CCOc1ccc(/C(=C(/Cl)c2ccccc2)c2ccccc2)cc1.O=C(O)CC(O)(CC(=O)O)C(=O)O [compound 16204]
3. CCN(CC)CCOc1ccc(/C(=C(/Cl)c2ccccc2)c2ccccc2)cc1.O=C(O)CC(O)(CC(=O)O)C(=O)O [compound 31249]
4. CCN(CC)CCOc1ccc(/C(=C(/Cl)c2ccccc2)c2ccccc2)cc1.O=C(O)CC(O)(CC(=O)O)C(=O)O [compound 24712]

Result:
1. 44.995 μm
2. 318.464 μm
3. 76.891 μm
4. 218.573 μm

====

test: Particle size analysis by laser diffraction (Malvern Mastersizer 2000); assay type: physicochemical; settings: 50% of the total volume of particles is less than the indicated size; final method conditions, 0.1% (w/v) Span 85 in hexane
Provide the recorded log10 of d50 for the entries that follow.
Values reflect log10 of reported d50 (μm).

Some molecules with recorded log10 of d50:
- molecule: "CCN(CC)CCOc1ccc(/C(=C(/Cl)c2ccccc2)c2ccccc2)cc1.O=C(O)CC(O)(CC(=O)O)C(=O)O [compound 32305]"
  observed-result: 0.99
- molecule: "CCN(CC)CCOc1ccc(/C(=C(/Cl)c2ccccc2)c2ccccc2)cc1.O=C(O)CC(O)(CC(=O)O)C(=O)O [compound 31249]"
  observed-result: 1.13
- molecule: "CCN(CC)CCOc1ccc(/C(=C(/Cl)c2ccccc2)c2ccccc2)cc1.O=C(O)CC(O)(CC(=O)O)C(=O)O [compound 16204]"
  observed-result: 2.03
- molecule: "CCN(CC)CCOc1ccc(/C(=C(/Cl)c2ccccc2)c2ccccc2)cc1.O=C(O)CC(O)(CC(=O)O)C(=O)O [compound 24867]"
  observed-result: 1.13

Pending molecule:
Problem: Request the reported log10 of d50 associated with CCN(CC)CCOc1ccc(/C(=C(/Cl)c2ccccc2)c2ccccc2)cc1.O=C(O)CC(O)(CC(=O)O)C(=O)O [compound 24712]
Result: 1.14
